# target-under-test: Chymotrypsin (Bos taurus)
# Construct: purchased Sigma-Aldrich
# method-summary: Chymotrypsin inhibition, fluorogenic substrate assay (Suc-Ala-Ala-Pro-Phe-AMC)
# Type: biochemical
# condition-summary: Chymotrypsin; inhibitor concentration 1.37174 nM; 40 min pre-incubation

compound: CC=C1NC(=O)[C@@H](NC(=O)[C@@H](NC(=O)[C@@H]2CCCN2C(=O)CCC)[C@@H](C)O)[C@@H](C)OC(=O)[C@H](C(C)C)NC(=O)[C@H](Cc2ccc(O)cc2)N(C)C(=O)[C@H](Cc2ccccc2)N2C(=O)[C@H](CC[C@H]2O)NC1=O [Rivulariapeptolide 988, rivulariapeptolide 988]
Mean (RFU/s): 5.099 RFU/s

---

Entries and their Mean (RFU/s) values follow.
# target-under-test: Elastase (Sus scrofa)
# Construct: purchased Sigma-Aldrich
# Sequence (P00772 27-266): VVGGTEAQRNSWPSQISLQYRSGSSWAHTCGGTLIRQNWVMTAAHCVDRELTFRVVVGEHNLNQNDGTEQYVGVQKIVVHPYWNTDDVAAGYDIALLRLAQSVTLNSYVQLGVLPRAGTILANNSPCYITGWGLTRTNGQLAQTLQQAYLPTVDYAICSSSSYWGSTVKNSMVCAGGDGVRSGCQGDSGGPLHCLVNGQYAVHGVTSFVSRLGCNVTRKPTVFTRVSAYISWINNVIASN
# method-summary: Elastase inhibition, fluorogenic substrate assay (MeOSuc-Ala-Ala-Pro-Val-AMC)
# Assay type: biochemical, Sus domesticus
# condition-summary: Elastase; inhibitor concentration 0.152416 nM; 40 min pre-incubation

molecule: C/C=C1\NC(=O)[C@@H](NC(=O)[C@@H](NC(=O)[C@H](C)NC(=O)CCC)[C@@H](C)O)[C@@H](C)OC(=O)[C@H](C(C)C)NC(=O)[C@H](Cc2ccc(O)cc2)N(C)C(=O)[C@H](Cc2ccccc2)N2C(=O)[C@H](CC[C@H]2O)NC1=O [Molassamide, molassamide]
Mean (RFU/s): 0.8307 RFU/s
--
molecule: CC=C1NC(=O)[C@@H](NC(=O)[C@@H](NC(=O)[C@@H]2CCCN2C(=O)CCC)[C@@H](C)OC(=O)C2CCCN2C(=O)CCC)[C@@H](C)OC(=O)[C@H](C(C)C)NC(=O)[C@H](Cc2ccc(O)cc2)N(C)C(=O)[C@H](Cc2ccccc2)N2C(=O)[C@H](CC[C@H]2O)NC1=O (stereo partly drawn) [Rivulariapeptolide 1155, rivulariapeptolide 1155]
Mean (RFU/s): 0.8963 RFU/s
--
molecule: CCCC(=O)N1CCCC1C(=O)NC(C(=O)NC1C(=O)NC(CC(C)C)C(=O)NC2CCC(O)N(C2=O)C(Cc2ccccc2)C(=O)N(C)C(Cc2ccc(O)cc2)C(=O)NC(C(C)C)C(=O)OC1C)C(C)OC(=O)C1CCCN1C(=O)CCC (stereo not drawn) [Rivulariapeptolide 1185, rivulariapeptolide 1185]
Mean (RFU/s): 0.9033 RFU/s

---

Entries and their Mean (RFU/s) values follow.
# target-under-test: Chymotrypsin (Bos taurus, UniProt P00766)
# Construct: purchased Sigma-Aldrich
# method-summary: Chymotrypsin inhibition, fluorogenic substrate assay (Suc-Ala-Ala-Pro-Phe-AMC)
# Assay type: biochemical
# condition-summary: Chymotrypsin; inhibitor concentration 111.111 nM; 40 min pre-incubation

molecule: CC=C1NC(=O)[C@@H](NC(=O)[C@@H](NC(=O)[C@@H]2CCCN2C(=O)CCC)[C@@H](C)OC(=O)C2CCCN2C(=O)CCC)[C@@H](C)OC(=O)[C@H](C(C)C)NC(=O)[C@H](Cc2ccc(O)cc2)N(C)C(=O)[C@H](Cc2ccccc2)N2C(=O)[C@H](CC[C@H]2O)NC1=O (stereo partly drawn) [Rivulariapeptolide 1155, rivulariapeptolide 1155]
target-under-test: Chymotrypsin (Bos taurus, UniProt P00766)
measurement-unit: RFU/s
Mean (RFU/s): 1.339
//
molecule: C/C=C1\NC(=O)[C@@H](NC(=O)[C@@H](NC(=O)[C@H](C)NC(=O)CCC)[C@@H](C)O)[C@@H](C)OC(=O)[C@H](C(C)C)NC(=O)[C@H](Cc2ccc(O)cc2)N(C)C(=O)[C@H](Cc2ccccc2)N2C(=O)[C@H](CC[C@H]2O)NC1=O [Molassamide, molassamide]
target-under-test: Chymotrypsin (Bos taurus, UniProt P00766)
measurement-unit: RFU/s
Mean (RFU/s): 4.56
//
molecule: CCCC(=O)N1CCCC1C(=O)NC(C(=O)NC1C(=O)NC(CC(C)C)C(=O)NC2CCC(O)N(C2=O)C(Cc2ccccc2)C(=O)N(C)C(Cc2ccc(O)cc2)C(=O)NC(C(C)C)C(=O)OC1C)C(C)OC(=O)C1CCCN1C(=O)CCC (stereo not drawn) [Rivulariapeptolide 1185, rivulariapeptolide 1185]
target-under-test: Chymotrypsin (Bos taurus, UniProt P00766)
measurement-unit: RFU/s
Mean (RFU/s): 0.416

---

Entries and their Mean (RFU/s) values follow.
# target-under-test: Chymotrypsin (Bos taurus, UniProt P00766)
# Construct: purchased Sigma-Aldrich
# method-summary: Chymotrypsin inhibition, fluorogenic substrate assay (Suc-Ala-Ala-Pro-Phe-AMC)
# Format: biochemical
# condition-summary: Chymotrypsin; inhibitor concentration 1.37174 nM; 40 min pre-incubation
measurement-name: Mean (RFU/s)

compound: CC=C1NC(=O)[C@@H](NC(=O)[C@@H](NC(=O)[C@@H]2CCCN2C(=O)CCC)[C@@H](C)OC(=O)C2CCCN2C(=O)CCC)[C@@H](C)OC(=O)[C@H](C(C)C)NC(=O)[C@H](Cc2ccc(O)cc2)N(C)C(=O)[C@H](CC(C)C)N2C(=O)[C@H](CC[C@H]2O)NC1=O (some centres unmarked) [Rivulariapeptolide 1121, rivulariapeptolide 1121]
measurement-name: Mean (RFU/s)
measured-value: 4.65

compound: C/C=C1\NC(=O)[C@@H](NC(=O)[C@@H](NC(=O)[C@H](C)NC(=O)CCC)[C@@H](C)O)[C@@H](C)OC(=O)[C@H](C(C)C)NC(=O)[C@H](Cc2ccc(O)cc2)N(C)C(=O)[C@H](Cc2ccccc2)N2C(=O)[C@H](CC[C@H]2O)NC1=O [Molassamide, molassamide]
measurement-name: Mean (RFU/s)
measured-value: 5.411

compound: CCCC(=O)N1CCCC1C(=O)NC(C(=O)NC1C(=O)NC(CC(C)C)C(=O)NC2CCC(O)N(C2=O)C(Cc2ccccc2)C(=O)N(C)C(Cc2ccc(O)cc2)C(=O)NC(C(C)C)C(=O)OC1C)C(C)OC(=O)C1CCCN1C(=O)CCC (centres unmarked) [Rivulariapeptolide 1185, rivulariapeptolide 1185]
measurement-name: Mean (RFU/s)
measured-value: 5.024

compound: C/C=C1\NC(=O)[C@@H](NC(=O)[C@@H](NC(=O)[C@H](C)NC(=O)CCC)[C@@H](C)O)[C@@H](C)OC(=O)[C@H](C(C)C)NC(=O)[C@H](Cc2ccc(O)c(Br)c2)N(C)C(=O)[C@H](Cc2ccccc2)N2C(=O)[C@H](CC[C@H]2O)NC1=O [Molassamide B, molassamide B]
measurement-name: Mean (RFU/s)
measured-value: 5.104

compound: CC=C1NC(=O)[C@@H](NC(=O)[C@@H](NC(=O)[C@@H]2CCCN2C(=O)CCC)[C@@H](C)OC(=O)C2CCCN2C(=O)CCC)[C@@H](C)OC(=O)[C@H](C(C)C)NC(=O)[C@H](Cc2ccc(O)cc2)N(C)C(=O)[C@H](Cc2ccccc2)N2C(=O)[C@H](CC[C@H]2O)NC1=O (some centres unmarked) [Rivulariapeptolide 1155, rivulariapeptolide 1155]
measurement-name: Mean (RFU/s)
measured-value: 5.774

---

# target-under-test: Proteinase K (Parengyodontium album, UniProt P06873)
# Construct: purchased Roche
# Sequence (P06873 106-384): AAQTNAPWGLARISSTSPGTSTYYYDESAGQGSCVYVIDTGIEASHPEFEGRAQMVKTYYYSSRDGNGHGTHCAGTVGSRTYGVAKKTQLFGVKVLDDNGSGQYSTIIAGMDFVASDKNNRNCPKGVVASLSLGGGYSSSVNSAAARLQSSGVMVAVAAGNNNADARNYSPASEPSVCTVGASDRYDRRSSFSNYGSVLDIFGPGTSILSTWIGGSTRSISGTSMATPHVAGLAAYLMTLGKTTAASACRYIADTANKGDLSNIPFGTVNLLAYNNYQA
# method-summary: Proteinase K inhibition, fluorogenic substrate assay (Suc-Ala-Ala-Pro-Phe-AMC)
# Assay type: biochemical, Tritirachium album
# condition-summary: Proteinase K; inhibitor concentration 4.11523 nM; 40 min pre-incubation
Entries and their Mean (RFU/s) values follow.

compound: CC=C1NC(=O)[C@@H](NC(=O)[C@@H](NC(=O)[C@@H]2CCCN2C(=O)CCC)[C@@H](C)OC(=O)C2CCCN2C(=O)CCC)[C@@H](C)OC(=O)[C@H](C(C)C)NC(=O)[C@H](Cc2ccc(O)cc2)N(C)C(=O)[C@H](CC(C)C)N2C(=O)[C@H](CC[C@H]2O)NC1=O (stereo partly drawn) [Rivulariapeptolide 1121, rivulariapeptolide 1121]
measurement-unit: RFU/s
Mean (RFU/s): 6.214
--
compound: CC=C1NC(=O)[C@@H](NC(=O)[C@@H](NC(=O)[C@@H]2CCCN2C(=O)CCC)[C@@H](C)OC(=O)C2CCCN2C(=O)CCC)[C@@H](C)OC(=O)[C@H](C(C)C)NC(=O)[C@H](Cc2ccc(O)cc2)N(C)C(=O)[C@H](Cc2ccccc2)N2C(=O)[C@H](CC[C@H]2O)NC1=O (stereo partly drawn) [Rivulariapeptolide 1155, rivulariapeptolide 1155]
measurement-unit: RFU/s
Mean (RFU/s): 6.088
--
compound: C/C=C1\NC(=O)[C@@H](NC(=O)[C@@H](NC(=O)[C@H](C)NC(=O)CCC)[C@@H](C)O)[C@@H](C)OC(=O)[C@H](C(C)C)NC(=O)[C@H](Cc2ccc(O)c(Br)c2)N(C)C(=O)[C@H](Cc2ccccc2)N2C(=O)[C@H](CC[C@H]2O)NC1=O [Molassamide B, molassamide B]
measurement-unit: RFU/s
Mean (RFU/s): 3.825
--
compound: C/C=C1\NC(=O)[C@@H](NC(=O)[C@@H](NC(=O)[C@H](C)NC(=O)CCC)[C@@H](C)O)[C@@H](C)OC(=O)[C@H](C(C)C)NC(=O)[C@H](Cc2ccc(O)cc2)N(C)C(=O)[C@H](Cc2ccccc2)N2C(=O)[C@H](CC[C@H]2O)NC1=O [Molassamide, molassamide]
measurement-unit: RFU/s
Mean (RFU/s): 5.597
--
compound: CC=C1NC(=O)[C@@H](NC(=O)[C@@H](NC(=O)[C@@H]2CCCN2C(=O)CCC)[C@@H](C)O)[C@@H](C)OC(=O)[C@H](C(C)C)NC(=O)[C@H](Cc2ccc(O)cc2)N(C)C(=O)[C@H](Cc2ccccc2)N2C(=O)[C@H](CC[C@H]2O)NC1=O [Rivulariapeptolide 988, rivulariapeptolide 988]
measurement-unit: RFU/s
Mean (RFU/s): 5.86
--
compound: CCCC(=O)N1CCCC1C(=O)NC(C(=O)NC1C(=O)NC(CC(C)C)C(=O)NC2CCC(O)N(C2=O)C(Cc2ccccc2)C(=O)N(C)C(Cc2ccc(O)cc2)C(=O)NC(C(C)C)C(=O)OC1C)C(C)OC(=O)C1CCCN1C(=O)CCC (stereo not drawn) [Rivulariapeptolide 1185, rivulariapeptolide 1185]
measurement-unit: RFU/s
Mean (RFU/s): 6.178
